The measurements presented in this section are drawn from PubChem BioAssay.

- Tested system: L-lactate dehydrogenase (Plasmodium falciparum (isolate CDC / Honduras))
- Assay remarks: PfLDH activity inhibition – cell lysate, 3D7 strain, counter-screen for P. falciparum growth inhibition project (AID 2304);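 note: 0% = vehicle and 100% = reference inhibitor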
- Measurement context: P. falciparum 3D7 crude extract, LDH APAD/NBT absorbance; at 2 µM; hits give high values
Endpoint name: inhibition (%)
The reply should contain only the number, in %.

Below, 6 molecules whose answers are already recorded.
Molecule | Tested system | inhibition, %
Cc1[nH]c2ccccc2c1C1=CCN(CCN2CCCc3c(Br)cccc3C2=O)CC1 | L-lactate dehydrogenase (Plasmodium falciparum (isolate CDC / Honduras)) | -1
CS(=O)(=O)Nc1ccc2[nH]cc(C3CCN(CC4CCC(NC(=O)/C=C/c5ccc(Cl)c(Cl)c5)CC4)CC3)c2c1 (stereo unspecified) | L-lactate dehydrogenase (Plasmodium falciparum (isolate CDC / Honduras)) | -3
Cc1cc(N(C)C2CCN(C)CC2)nc(Nc2ccc(Br)cc2)n1 | L-lactate dehydrogenase (Plasmodium falciparum (isolate CDC / Honduras)) | 2
CC[C@H]1CN2CC[C@@H]1C[C@H]2[C@H](O)c1cc(N2CCC(C)CC2)nc2ccc(OC)cc12 | L-lactate dehydrogenase (Plasmodium falciparum (isolate CDC / Honduras)) | 1
CC(C)n1ncc2c(C(=O)Nc3ccc(C#N)c(Cl)c3)cc(C3CC3)nc21 | L-lactate dehydrogenase (Plasmodium falciparum (isolate CDC / Honduras)) | 2
COc1ccc(CC(C)NCC(O)c2cccc(Cl)c2)cc1C (stereo unspecified) | L-lactate dehydrogenase (Plasmodium falciparum (isolate CDC / Honduras)) | -6

// query Look up inhibition for this molecule: COC(=O)c1ccc(CC(C)NCC(O)c2ccccc2Cl)cc1 (stereo unspecified)
// result 1

// query Sample O=C(/C=C/c1cc(C(F)(F)F)ccc1F)N1CCC(CN2CCC(c3c[nH]c4ccccc34)CC2)CC1 — what was its inhibition?
// result -1
